These data points were gathered from paper PMC7897990.

As shown below, each of these compounds has a reported T.vaginalis_%inb_Rep1 value.
Test system: Trichomonas vaginalis G3 trophozoites
CONDITION_NOTES: HTS, parasite screen at 1 µg/mL, replicate 1
Quick reminder: number only, in %, skip the unit.

{"COMPOUND": "CC[C@H]1OC(=O)[C@H](C)[C@@H](O[C@H]2C[C@@](C)(OC)[C@@H](O)[C@H](C)O2)[C@H](C)[C@@H](O[C@@H]2O[C@H](C)C[C@H](N(C)C)[C@H]2O)[C@@]2(C)CC(C)=C(O2)[C@H](C)[C@@H](O)[C@]1(C)O [Erythromycin A enol ether]", "T.vaginalis_%inb_Rep1 (%)": 5.17}
{"COMPOUND": "CCCN1C[C@H](C)[C@@H](O)[C@](C)(O)[C@@H](CC)OC(=O)[C@H](C)[C@@H](O[C@H]2C[C@@](C)(OC)[C@@H](O)[C@H](C)O2)[C@H](C)[C@@H](O[C@@H]2O[C@H](C)C[C@H](N(C)C)[C@H]2O)[C@](C)(O)C[C@H]1C [Gamithromycin]", "T.vaginalis_%inb_Rep1 (%)": 5.73}
{"COMPOUND": "COc1cc(/C=C/C(=O)O)ccc1O [Ferulic acid]", "T.vaginalis_%inb_Rep1 (%)": 13.69}
{"COMPOUND": "C/C=C(\\C)c1cc(O)c(C)c2c1Oc1cc(O)cc(C)c1C(=O)O2 [Unguinol]", "T.vaginalis_%inb_Rep1 (%)": 8.70}
{"COMPOUND": "CC1=CC2C(O)CCCC2C(C)(C(O)=C2C(=O)CNC2=O)C1CCC(C)C(O)/C(C)=C/CC(O)/C=C/C(C)C(O)/C=C/CC(O)/C=C/CC(O)CC1CCCN1C(=N)N (stereo not drawn) [TPU-0037C]", "T.vaginalis_%inb_Rep1 (%)": 9.28}

Then this compound:
Entry O=C(O)c1cccc2nc3ccccc3nc12 [Tubermycin B] needs its T.vaginalis_%inb_Rep1 filled in; supply it.
8.13

* * *

Tested on: Trichomonas vaginalis G3 trophozoites
CONDITION_NOTES: HTS, parasite screen at 1 µg/mL, replicate 2
Listed below: T.vaginalis_%inb_Rep2 values for each entry.
// return numeric value only (unit: %, not printed)

Solved cases below.
{"COMPOUND": "O=c1[nH]c2ccccc2c(-c2cccc(O)c2)c1O", "T.vaginalis_%inb_Rep2, %": 14.99}
{"COMPOUND": "CCCCCC[C@H]1C(=O)O[C@H](C)[C@@H](O)/C=C/C=C/C=C/C=C/C=C(\\C)[C@@H](O)C[C@H](O)C[C@H](O)C[C@H](O)C[C@H](O)C[C@H](O)C[C@@H]1O", "T.vaginalis_%inb_Rep2, %": 25.09}
{"COMPOUND": "CC(=O)O[C@@H]1[C@@H]2O[C@H]2[C@@](C)(O)C(=O)[C@@H](C)C/C=C\\[C@H]2[C@H](O)C(C)=C(C)[C@H]3[C@H](Cc4ccccc4)NC(=O)[C@@]123", "T.vaginalis_%inb_Rep2, %": 16.20}
{"COMPOUND": "CC1=CC2C(O)CCCC2C(C)(C(O)=C2C(=O)CNC2=O)C1CCC(C)C(O)/C(C)=C/CC(O)/C=C/C(C)C(O)/C=C/CC(O)/C=C/CC(O)CC1CCCN1C(=N)N (centres unmarked) [TPU-0037C]", "T.vaginalis_%inb_Rep2, %": 14.69}
{"COMPOUND": "Cc1c2c(c(O)c3c(O)ccc(Cl)c13)C(=O)C1(O)C(O)=C(C(N)=O)C(=O)C(N(C)C)C1C2.Cl (centres unmarked)", "T.vaginalis_%inb_Rep2, %": 9.56}
{"COMPOUND": "CC1(C)CCC[C@]2(C)[C@@H](CO)C(CO)=CC[C@@H]12", "T.vaginalis_%inb_Rep2, %": 11.64}

Determine its reported T.vaginalis_%inb_Rep2: CCC1OC(=O)CC(O)C(C)C(OC2OC(C)C(O)C(N(C)C)C2O)C(CCN2CC(C)CC(C)C2)CC(C)C(=O)C=CC(C)=CC1COC1OC(C)C(O)C(OC)C1OC.O=P(O)(O)O (centres unmarked) [Tilmicosin phosphate]
12.37

Provide T.vaginalis_%inb_Rep2 value for the following compound: Cc1cc(=O)c(O)cc2c1C[C@@H]1CC(C)(C)/C=C/C[C@@]3(C)Oc4cc(O)c(=O)cc(C)c4C[C@@H]3C[C@@H](O)[C@]1(C)O2
13.74

Identify measured T.vaginalis_%inb_Rep2 associated with CC1=CC(O/C=C2\CCOC2=O)OC1=O (centres unmarked)
13.10

Give the reported value of T.vaginalis_%inb_Rep2 for this record: C[C@H]1CC[C@H]2[C@@H](C=C[C@@H]3[C@H]4[C@@H](C)O[C@]5(O)[C@@H](CO)N(C)C(=O)[C@]45C(=O)[C@@]32C)C1
15.01

Give the reported value of T.vaginalis_%inb_Rep2 for this record: CC(=O)c1c(O)cc(O)c(C(C)=O)c1O
10.70
